Test system: Plasmodium falciparum
Experiment: GSK_TCMDC: Inhibition of Plasmodium falciparum 3D7 in whole erythrocytes, using parasite LDH activity as an index of growth.
Type: functional, organism-based
Conditions: Plasmodium falciparum, 3D7
readoutType: XC50 (nM)
Enter your answer as a number in nM; do not include the unit.

stdin: Please report the recorded XC50 for Clc1ccc2c(NCCc3ccccc3)ccnc2c1 .
stdout: 488

stdin: Please report the recorded XC50 for CC(C)C[C@@H](NC(=O)NC1CCC(CCN2C3CCC2CC(OC(=O)C(CO)c2ccccc2)C3)CC1)C(O)(c1ccccc1)c1ccccc1 (some centres undefined) .
stdout: 1070

stdin: Please report the recorded XC50 for CC(=O)Nc1ccc(NC(=O)c2cc(-c3cc(Cl)ccc3O)n[nH]2)cc1 .
stdout: 176

stdin: Please report the recorded XC50 for Cc1sc(NC(=O)Cc2cccc(C(F)(F)F)c2)nc1-c1cccc(Cl)c1 .
stdout: 470

stdin: Please report the recorded XC50 for CNc1ccc(CNCc2cccc(-c3ccc(-c4nc5cccc(C)c5[nH]4)cc3)c2)cc1 .
stdout: 660

stdin: Please report the recorded XC50 for Cc1cc(N2CCCC2)nc(Nc2ccc(NC(=O)CC(C)C)cc2)n1 .
stdout: 841

====

Test system: Plasmodium falciparum
Assay: GSK_TCMDC: Inhibition of Plasmodium falciparum 3D7 in whole erythrocytes, using parasite LDH activity as an index of growth.
Assay type: functional, organism-based
Conditions: Plasmodium falciparum, 3D7
Parameter: XC50. Scope: all listed entries.
Enter your answer as a number in nM; do not include the unit.

Recorded results for 4 molecules are shown here.
CN(C)Cc1ccc2cc(NC(=O)c3ccc(-c4ccc(Cl)cc4)cc3)ccc2c1	1340
CC(Nc1nncc(-c2cccc(F)c2)n1)c1ccc(F)cc1 (centres undefined)	791
COc1ccc2nccc([C@@H](O)CN3CCC(NC[C@H](Cc4ccccc4)NC(=O)OC(C)(C)C)CC3)c2c1	228
O=C(NCCCCN1CCC(c2ccc3c(c2OCc2ccccn2)CCCC3)CC1)c1ccc(NC(=O)c2ccc(Cl)cc2)cc1	803

stdin: Please report the recorded XC50 for CC(C)CNCc1cccc(-c2cccc(CN(C(=O)Nc3ccccc3)C3CCN(Cc4ccccc4)CC3)c2)c1 .
stdout: 369

stdin: Please report the recorded XC50 for Cc1oc(-c2cccc(Oc3ccccc3)c2)nc1CN(Cc1cnn(C)c1)C(C)C .
stdout: 1090

stdin: Please report the recorded XC50 for CCOCCCNc1nc2cc(OC)c(OC)cc2c2nc(-c3ccccc3)nn12 .
stdout: 209

stdin: Please report the recorded XC50 for O=C(NCCc1ccc(Cl)c(Cl)c1)[C@@H]1CCCN1C(=O)c1ccc(O)c(-c2ccc(Cl)c(Cl)c2)c1 .
stdout: 550

stdin: Please report the recorded XC50 for O=C(Nc1ccc(CN2CCOCC2)cc1)c1ccc(-c2cc(Cl)ccc2Cl)o1 .
stdout: 613

====

Tested on: Plasmodium falciparum
Experiment: GSK_TCMDC: Inhibition of Plasmodium falciparum 3D7 in whole erythrocytes, using parasite LDH activity as an index of growth.
Assay type: functional, organism-based
Details: Plasmodium falciparum, 3D7
Please use MET for XC50 under 700 nM and NOT MET for everything else, ties included.

stdin: Does this compound meet the criterion XC50 < 700 nM? CC(CN1CCN(C)CC1)C(=O)Nc1ccc(-c2ccc(-c3nc4cc(F)ccc4[nH]3)cc2)cc1 (centres undefined)
stdout: NOT MET

stdin: Does this compound meet the criterion XC50 < 700 nM? FC(F)(F)c1ccc2[nH]c(-c3ccc(-c4ccc(CNCCN5CCNCC5)cc4)cc3)nc2c1
stdout: NOT MET

stdin: Does this compound meet the criterion XC50 < 700 nM? O=C(NCCCCN1CCC2c3cccc(O)c3CCC21)c1ccc(-c2ccccc2)cc1 (centres undefined)
stdout: NOT MET

stdin: Does this compound meet the criterion XC50 < 700 nM? CN(C(=O)Nc1ccc(C(F)(F)F)cc1)C1CCN(CCCCCNC(=O)/C=C/c2ccc(Cl)c(Cl)c2)CC1
stdout: MET

stdin: Does this compound meet the criterion XC50 < 700 nM? CN1CCN(Cc2ccc(-c3ccc4c(Nc5ccc(Oc6ccccc6)cc5)ccnc4c3)o2)CC1
stdout: MET

stdin: Does this compound meet the criterion XC50 < 700 nM? Cc1ccc2c(c1)NCC21CCN(C[C@@H](O)C2CCN(c3ccnc(Cl)c3)CC2)CC1C (some centres undefined)
stdout: NOT MET

stdin: Does this compound meet the criterion XC50 < 700 nM? COC(=O)c1sc(-c2ccc(Cl)cc2)cc1N(CCCN1CCC(N2CCCCC2)CC1)S(=O)(=O)c1ccc(C)cc1
stdout: NOT MET

stdin: Does this compound meet the criterion XC50 < 700 nM? Cc1ccc(Cn2nc(N3CCNCC3)ccc2=O)cc1NC(=O)Nc1ccc(-c2ccccc2)cc1
stdout: NOT MET

stdin: Does this compound meet the criterion XC50 < 700 nM? CCn1c(C)c(C)c2cc(C(=O)Nc3ccon3)ccc21
stdout: NOT MET

====

Test system: Plasmodium falciparum
Assay: GSK_TCMDC: Inhibition of Plasmodium falciparum 3D7 in whole erythrocytes, using parasite LDH activity as an index of growth.
Type: functional, organism-based
Conditions: Plasmodium falciparum, 3D7
Note that class boundaries on XC50 are band A: < 500 nM; band B: ≥ 500 nM and < 1000 nM; band C: ≥ 1000 nM

stdin: Could you place CN(Cc1c(Cl)cnn1C)S(=O)(=O)c1ccc2ccccc2c1 in its proper category? Many thanks.
stdout: band C

stdin: Could you place Cc1cc(=NN=Cc2ccc(Cl)cc2)c2cc(C(F)(F)F)ccc2[nH]1 in its proper category? Many thanks.
stdout: band B

====

System: Plasmodium falciparum
Assay: GSK_TCMDC: Inhibition of Plasmodium falciparum 3D7 in whole erythrocytes, using parasite LDH activity as an index of growth.
Type: functional, organism-based
Conditions: Plasmodium falciparum, 3D7
readoutType: XC50 (nM)
Enter your answer as a number in nM; do not include the unit.

Recorded results for 10 compounds are shown here.
COc1cc([N+](=O)[O-])ccc1NC(=O)c1cc(Cl)ccc1O	1140
COc1cc2nc(N(C)Cc3cc4c(Cl)cccc4s3)nc(N)c2cc1OC	953
O=C(Nc1ccc(O)c(-c2nc3ccccc3[nH]2)c1)c1ccc([N+](=O)[O-])cc1	318
CCC[C@@H]([C@@H](CC(C)C)C(=O)N[C@@H](CCCCNC(=O)c1ccccn1)C(=O)Nc1nccs1)N(O)C=O	46.6
Cc1cccc(C(=O)Nc2ccnc(N3CCC(N(C)Cc4ccc(C#N)cc4)CC3)c2)c1	912
O=C(NCc1cccs1)[C@H](Cc1ccccc1)Nc1ccnc(NCCc2ccccc2)n1	1050
Cc1cc(NC(=O)Nc2cccc(C#N)c2)c2ccccc2n1	581
Nc1ccnc(N2CCC(CCOc3cc(C(F)(F)F)nc4c(C(F)(F)F)cccc34)CC2)c1	792
O=c1[nH]ccc2nc(N[C@@H]3CCNC3)nc(Nc3cc(Cl)cc(Cl)c3)c12	738
COc1ccc(C(=O)O)cc1OCc1ccccc1	819

stdin: Please report the recorded XC50 for COc1ccc(C(=O)Nc2ccc(Cl)cc2C(=O)Nc2ccncc2)cc1 .
stdout: 822

stdin: Please report the recorded XC50 for CC(C)C[C@H](NC(=O)c1ccc(OCCN2CCOCC2)cc1)C(=O)N[C@H](/C=N/N1CCN(C)C1=O)CCc1ccccc1 .
stdout: 294

stdin: Please report the recorded XC50 for CC(=O)NCCNc1nccc(N2CCc3ncnc(Nc4ccc(OCc5ccccn5)c(Cl)c4)c3C2)n1 .
stdout: 822

stdin: Please report the recorded XC50 for CC(=O)Nc1ccc(OCCN(CC(C)(C)C)c2ccc(C#N)c(C(F)(F)F)c2)c(Cl)c1 .
stdout: 493

stdin: Please report the recorded XC50 for CCOC(=O)C1=C(C)N=c2sc(=Cc3cc(Cl)ccc3O)c(=O)n2C1c1cc(OC)c(OC)cc1Br (stereo not given) .
stdout: 993

====

Parameter: XC50. Scope: all listed entries.
System: Plasmodium falciparum
Assay: GSK_TCMDC: Inhibition of Plasmodium falciparum 3D7 in whole erythrocytes, using parasite LDH activity as an index of growth.
Assay type: functional, organism-based
Conditions: Plasmodium falciparum, 3D7
Enter your answer as a number in nM; do not include the unit.

CCc1cn2c3c(cc(C(=O)N[C@@H](Cc4ccccc4)[C@H](O)CNC4CCC4)cc13)N(C)S(=O)(=O)CC2	99
CCOc1cc(Br)c(C(C)NC(=O)c2ccccc2)cc1OCC (centres undefined)	861
C[C@H](Cc1ccc(OCCCCCCOc2ccccc2)cc1)NC[C@@H](O)c1cc(Br)no1	883
Cc1cc(F)ccc1-c1nc(N(C)CCN(C)C(=O)N(C)c2ccccc2)nc2c1ccc(=O)n2-c1c(F)cccc1F	1240
Cc1ccc(C(=O)Nc2ccc(Nc3ccnc4cc(-c5ccccn5)ccc34)cc2O)cc1	111
CC(C)c1ccc(-c2noc(SCC(=O)N3CCCCC3C)n2)cc1 (centres undefined)	1670
CC(C)(C)c1cc(/C=C/C(=O)NC2CCC(CN3CCC(c4c[nH]c5ccccc45)CC3)CC2)cc(C(C)(C)C)c1O (centres undefined)	705
Cc1nc2ccc(S(=O)(=O)Nc3ccc(C(=O)N[C@@H](CCC(=O)O)C(=O)O)cc3)cc2c(=O)[nH]1	1010

# evaluate next
stdin: Plasmodium falciparum / XC50 / O=C1Nc2cccc3c2C1(CCCCN1CCC(c2c(-c4ccc(F)cc4)[nH]c4ccccc24)CC1)CCC3 (centres undefined) : value?
stdout: 1190

Cited source for all entries: ChEMBL document CHEMBL1157539
